Test: DRUGMATRIX: Phosphodiesterase PDE3 enzyme inhibition (substrate: [3H]cAMP + cAMP)
Type: tissue-based, Homo sapiens
Measurement conditions: platelet; Not Active = under 50% inhibition at 10 µM
Value type: Ki

Some entries whose results are on file:
O=C(CCCN1CC=C(n2c(=O)[nH]c3ccccc32)CC1)c1ccc(F)cc1 :: Not Active
Cc1cc(C2CCCCC2)n(O)c(=O)c1 :: Not Active
CC1(C)O[C@@H]2C[C@H]3[C@@H]4CCC5=CC(=O)C=C[C@]5(C)[C@@]4(F)[C@@H](O)C[C@]3(C)[C@]2(C(=O)CO)O1 [TRIAMCINOLONE ACETONIDE] :: Not Active
C[C@H]1c2cccc(O)c2C(=O)C2=C(O)[C@]3(O)C(=O)C(C(N)=O)=C(O)[C@@H](N(C)C)[C@@H]3[C@@H](O)[C@@H]21.O :: Not Active
C=CCC1(C(C)CCC)C(=O)NC(=O)NC1=O (stereo unspecified) :: Not Active

Here is the next item to consider.
Lookup: Request the reported Ki associated with CC[C@]1(O)C[C@H]2CN(CCc3c([nH]c4ccccc34)[C@@](C(=O)OC)(c3cc4c(cc3OC)N(C=O)[C@H]3[C@@](O)(C(=O)OC)[C@H](OC(C)=O)[C@]5(CC)C=CCN6CC[C@]43[C@@H]65)C2)C1
Found: Not Active
